Cited source: the supplement of paper PMC6555819

- Tested on: THRa:RXRa (NR concentration 90 nM, RXRa partner concentration 90 nM)
- EXPERIMENTAL DETAILS: PBM binding z-score (relative to random genomic background probes); higher = stronger binding; sequences stand for … in GC…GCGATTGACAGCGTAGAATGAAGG
In this section, each of the sequences is paired with its reported PBM binding z-score.
Give the figure only, with no unit attached.

# SEQUENCE RECORD, SYSTEM, ENDPOINT VALUE
rows = [
    ("CCTTACGGGTCACTCCAGGGTATAGCATCGGAGT", "THRa:RXRa (NR concentration 90 nM, RXRa partner concentration 90 nM)", 4.35),
]

Q: Read the entry CGAACTAGTTCAGAACAGGACAGTGAAGGATGAT and write its reported PBM binding z-score.
A: 1.8

Q: Read the entry GCTTGTAGATCAAGGTTGAGAAAGACTAAGCTAA and write its reported PBM binding z-score.
A: -0.135

Q: Read the entry CCAAGCAGGCCAGGGTCACTCAAGCATTTCGCTT and write its reported PBM binding z-score.
A: 3

###

- Tested on: PPARg DBDmut:RXRa IVT, anti-PPARg (DBD mutation: PPARg1 K132A/R137A, NR concentration 270 nM, RXRa partner concentration 90 nM)
- EXPERIMENTAL DETAILS: PBM binding z-score (relative to random genomic background probes); higher = stronger binding; sequences stand for … in GC…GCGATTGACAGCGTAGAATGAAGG
QUANTITY KIND: PBM binding z-score
Give the figure only, with no unit attached.

# SEQUENCE RECORD, ENDPOINT VALUE
measured = [
    ("GCTTGTTGGTCAGTAAAAGGTCACACACCGGTCG", 0.573),
    ("TCGAGGAGGTTAGTCGGGGCATTCAGCCAACATA", -0.713),
    ("CGAACGAGGGCATGCGTTGATAGCAAATGCCGAT", -0.297),
    ("ATATGTAGATTAAGGGTCATTCAGGTTGGTTCGC", 1.32),
    ("TCTGCTAGGTCAAGGATGGTCAGCTAATCTGCTA", -0.492),
]

Continue with the sequence presented below.
Q: Read the entry CCAACTAGGTCAAGGACAGTGAATCTCCGCACGC and write its reported PBM binding z-score.
A: 1.93

###

- Tested on: PPARg DBDmut IVT, anti-PPARg (DBD mutation: PPARg1 K132A/R137A, NR concentration 270 nM)
- EXPERIMENTAL DETAILS: PBM binding z-score (relative to random genomic background probes); higher = stronger binding; sequences stand for … in GC…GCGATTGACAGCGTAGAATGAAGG
So basically, the class depends on measured PBM binding z-score, and the ranges are Low: < -0.2; Medium: ≥ -0.2 and < 0.9; High: ≥ 0.9

# SEQUENCE RECORD, SYSTEM, ASSIGNED LABEL
rows = [
    ("CAAACTAGGTCCAGGTCAAAGTCGGTTTGTGCCA", "PPARg DBDmut IVT, anti-PPARg (DBD mutation: PPARg1 K132A/R137A, NR concentration 270 nM)", "Medium"),
    ("TCTTGTAGATCAATAGAGATTAAGAAAGTGCGCT", "PPARg DBDmut IVT, anti-PPARg (DBD mutation: PPARg1 K132A/R137A, NR concentration 270 nM)", "High"),
    ("AGTCAAAGTTCCGGACGAGGTAACGTAAAGCACG", "PPARg DBDmut IVT, anti-PPARg (DBD mutation: PPARg1 K132A/R137A, NR concentration 270 nM)", "Low"),
    ("ATATGTAGGTAAGCTGGGGTCATTCAGACTAGGC", "PPARg DBDmut IVT, anti-PPARg (DBD mutation: PPARg1 K132A/R137A, NR concentration 270 nM)", "High"),
    ("TCAAACAGGTGAAGGTAACTCAGGTACGCAGTCG", "PPARg DBDmut IVT, anti-PPARg (DBD mutation: PPARg1 K132A/R137A, NR concentration 270 nM)", "Medium"),
    ("ATCTCTAGGTAAAAAGTTCAGTGAAAGAGAGGAC", "PPARg DBDmut IVT, anti-PPARg (DBD mutation: PPARg1 K132A/R137A, NR concentration 270 nM)", "High"),
    ("ATCTCTAGGTAAGACTCAGATCAGTGAAGAACGC", "PPARg DBDmut IVT, anti-PPARg (DBD mutation: PPARg1 K132A/R137A, NR concentration 270 nM)", "Medium"),
    ("GCTGCTAGGTCAACTGATCGTCAGCTAAAGCTCG", "PPARg DBDmut IVT, anti-PPARg (DBD mutation: PPARg1 K132A/R137A, NR concentration 270 nM)", "Low"),
    ("CGAACCAGGTCAAGGACAGTGAATCTCCGCACGC", "PPARg DBDmut IVT, anti-PPARg (DBD mutation: PPARg1 K132A/R137A, NR concentration 270 nM)", "High"),
    ("AGAATGAGGTTATACGTAGTTCAGGGAAGAAAGT", "PPARg DBDmut IVT, anti-PPARg (DBD mutation: PPARg1 K132A/R137A, NR concentration 270 nM)", "Medium"),
]

Q: Which bin, given its PBM binding z-score, does TAGCCTAGGTCATGGGCCCGTATACCACGCGAAC occupy?
A: Low

Q: Which bin, given its PBM binding z-score, does GCAGACATGTGAAACGCAGGTAACTCAGGGTGGC occupy?
A: Low

Q: Which bin, given its PBM binding z-score, does GGAACGAGGGCAATTTGATAGCAGAGTTTGATGG occupy?
A: Low
